# Test system: HepDE19 cells
# experimental_details: Cytotoxicity (CCK-8 cell viability) and selectivity index
# Assay type: cell-based, human
# setup_conditions: CC50 value/EC50 value
readout: Selectivity index (CC50/EC50)
Number only, please.

Consider the worked cases shown below.
compound	Selectivity index (CC50/EC50)
COC(=O)C1=C(CN2[C@@H]3COC[C@H]2C[C@H](NC(N)=O)C3)NC(c2nccs2)=N[C@H]1c1ccc(F)cc1Cl [Example 62]	6571
COC(=O)C1=C(CN2[C@@H]3COC[C@H]2C[C@H](CC(=O)O)C3)NC(c2nccs2)=N[C@H]1c1ccc(F)c(F)c1Cl [Example 73]	24083
COC(=O)C1=C(CN2C3COCC2c2cnoc2C3)NC(c2nccs2)=N[C@H]1c1ccc(F)cc1Cl (stereo partly shown) [Example 105]	12041
COC(=O)C1=C(CN2[C@@H]3COC[C@H]2C[C@H](NC(C)=O)C3)NC(c2nccs2)=N[C@H]1c1ccc(F)cc1Cl [Example 61]	10942
CCOC(=O)C1=C(CN2[C@@H]3COC[C@H]2C[C@@H](CC(=O)O)C3)NC(c2nccs2)=N[C@H]1c1cccc(F)c1Cl [Example 65]	5980
CCOC(=O)C(O)C1(O)CC2COCC(C1)N2CC1=C(C(=O)OC)[C@H](c2ccc(F)cc2Cl)N=C(c2nccs2)N1 (stereo partly shown) [Example 137]	17031
CCOC(=O)C1=C(CN2[C@@H]3COC[C@H]2C[C@H](NC(C)=O)C3)NC(c2nccs2)=N[C@H]1c1ccc(F)cc1Br [Example 71]	14690

Query CCOC(=O)C1=C(CN2C3COCC2CC(CC(=O)O)C3)NC(c2nccs2)=N[C@H]1c1ccc(F)cc1Cl (stereo partly shown) [Example 26] yields Selectivity index (CC50/EC50) of 5231

###

Recorded CC50 at 5 days by entry
# experimental_details: Cytotoxicity (CCK-8 cell viability) and selectivity index
# Assay type: cell-based, human
# setup_conditions: human, HepDE19 cells; cytotoxicity, concentration resulting in death of 50% of host cells

Consider the worked cases shown below.
compound	CC50 at 5 days
COC(=O)C1=C(CN2[C@@H]3COC[C@H]2C[C@H](CC(=O)O)C3)NC(c2nccs2)=N[C@H]1c1ccc(F)c(F)c1Cl	72 µM
COC(=O)C1=C(CN2C3COCC2CC(O)(CO)C3)NC(c2nccs2)=N[C@H]1c1ccc(F)cc1Cl (stereo partly drawn)	> 100 µM
CCOC(=O)C1=C(CN2[C@@H]3COC[C@H]2C[C@H](CC(=O)O)C3)NC(c2nccs2)=N[C@H]1c1ccccc1Br	> 100 µM
COC(=O)C1=C(CN2C3CC(F)(F)C2C[C@@](O)(CC(=O)O)C3)NC(c2nccs2)=N[C@H]1c1ccc(F)cc1Cl (single isomer, unassigned)	> 100 µM
COC(=O)C1=C(CN2[C@@H]3COC[C@H]2C[C@H](CC(=O)O)C3)NC(c2nccs2)=N[C@H]1c1ccc(F)cc1Br	> 100 µM

Proceed to the following item.
Query COC(=O)C1=C(CN2[C@@H]3C[C@H](CC(=O)O)C[C@H]2C(F)(F)C3)NC(c2nccs2)=N[C@H]1c1cccc(F)c1Cl yields CC50 at 5 days of 52 µM

###

# experimental_details: Lyophilisation solubility assay (Lysa)
# Assay type: physicochemical
# setup_conditions: pH 6.5, aqueous buffer, thermodynamic from solid
readout: solubility thermodynamic (µg/mL)
Please state the figure in µg/mL; there is no need to write the unit.

Consider the worked cases shown below.
compound	readout	reading
COC(=O)C1=C(CN2C3CC(F)(F)C2C[C@@](O)(CC(=O)O)C3)NC(c2nccs2)=N[C@@H]1c1ccc(F)c(F)c1C (single isomer, unassigned)	solubility thermodynamic	112
CCOC(=O)C1=C(CN2[C@@H]3COC[C@H]2C[C@@H](CC(=O)O)C3)NC(c2nccs2)=N[C@H]1c1cccc(F)c1Cl	solubility thermodynamic	375
COC(=O)C1=C(CN2C3CNC(=O)CC2COC3)NC(c2nccs2)=N[C@H]1c1ccc(F)cc1Cl (stereo partly drawn)	solubility thermodynamic	263

Proceed to the following item.
Query CCOC(=O)C1=C(CN2C3CCC2(C(=O)O)COC3)NC(c2nccs2)=N[C@H]1c1cccc(F)c1Cl (stereo partly drawn) yields solubility thermodynamic of 564
